- System: Serine/threonine-protein kinase PLK1 (Homo sapiens, UniProt P53350)
- Sequence (P53350 whole entry): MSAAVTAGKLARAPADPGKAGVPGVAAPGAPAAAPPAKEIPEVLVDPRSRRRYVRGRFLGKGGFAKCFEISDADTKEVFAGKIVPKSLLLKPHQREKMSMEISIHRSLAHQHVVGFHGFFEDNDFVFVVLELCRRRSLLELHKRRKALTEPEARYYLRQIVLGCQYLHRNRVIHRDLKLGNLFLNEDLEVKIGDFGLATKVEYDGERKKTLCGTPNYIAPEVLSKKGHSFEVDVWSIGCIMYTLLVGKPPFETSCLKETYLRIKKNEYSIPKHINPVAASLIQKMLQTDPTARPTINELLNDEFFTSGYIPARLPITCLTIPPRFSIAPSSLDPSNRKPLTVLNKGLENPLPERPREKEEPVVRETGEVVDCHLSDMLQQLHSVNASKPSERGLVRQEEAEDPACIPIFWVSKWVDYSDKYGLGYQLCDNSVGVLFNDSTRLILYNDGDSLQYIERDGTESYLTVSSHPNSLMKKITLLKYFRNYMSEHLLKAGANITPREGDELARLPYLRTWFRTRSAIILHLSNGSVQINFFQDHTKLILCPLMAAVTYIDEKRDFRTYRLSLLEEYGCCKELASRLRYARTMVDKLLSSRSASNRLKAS
Observable: pIC50
// pIC50: -log10(molar conc.)

Q) Specify measured pIC50 for `CCNc1cc(-c2ccc(NC(=O)Nc3cccc(Cl)c3)cc2C(F)(F)F)ccn1` .
A) 7.07

====

Listed compounds paired with reported pIC50
- Tested on: MCF7
- Procedure details: Cytotoxicity against human MCF7 cells after 24 hrs by MTT assay
- Format: functional, cell-based
- Condition info: MCF7, 24 h
// pIC50: -log10(molar conc.)

The cases that follow already have their pIC50 on record.
In [3]: df
Out[3]:
                                        smi  system  endpoint_result
0  CCNc1cc(-c2ccc(NC(=O)Nc3c(C)cccc3C)cc2OC)ccn1    MCF7             5.03
1  CCNc1cc(-c2ccc(NC(=O)Nc3ccc(C(F)(F)F)cc3)cc2C(F)(F)F)ccn1    MCF7             5.62
2  CCNc1cc(-c2ccc(NC(=O)Nc3ccc(OC)cc3)cc2F)ccn1    MCF7             4.85
3  CCNc1cc(-c2ccc(NC(=O)Nc3ccccc3Cl)cc2C)ccn1    MCF7             5.08
4  CCNc1cc(-c2ccc(NC(=O)Nc3cccc(Cl)c3)cc2C)ccn1    MCF7             5.38

Q) Please report the measured pIC50 for `CCNc1cc(-c2ccc(NC(=O)Nc3ccccc3Cl)cc2OC)ccn1` tested on MCF7.
A) 5.00

Q) Please report the measured pIC50 for `CCNc1cc(-c2ccc(NC(=O)Nc3c(C)cccc3C)cc2C(F)(F)F)ccn1` tested on MCF7.
A) 5.16

====

- Test system: MCF7
- Procedure details: Cytotoxicity against human MCF7 cells after 24 hrs by MTT assay
- Format: functional, cell-based
- Condition info: MCF7, 24 h
Listed compounds paired with reported IC50
Numbers only here, please. The scale is µM.

The cases that follow already have their IC50 on record.
In [3]: df
Out[3]:
                                        smi  observable  endpoint_result
0  CCNc1cc(-c2ccc(NC(=O)Nc3c(C)cccc3C)cc2C)ccn1        IC50             7.92
1  CCCNc1cc(-c2ccc(NC(=O)Nc3ccc(C(F)(F)F)cc3)cc2C(F)(F)F)ccn1        IC50             7.68
2  O=C(Nc1ccc(C(F)(F)F)cc1)Nc1ccc(-c2ccnc(NCC3CC3)c2)c(C(F)(F)F)c1        IC50             15.6
3  CCNc1cc(-c2ccc(NC(=O)Nc3ccccc3Cl)cc2C(F)(F)F)ccn1        IC50             3.68
4  CCNc1cc(-c2ccc(NC(=O)Nc3cc(C(F)(F)F)cc(C(F)(F)F)c3)cc2C(F)(F)F)ccn1        IC50             5.96
5  CCNc1cc(-c2ccc(NC(=O)Nc3cccc4ccccc34)cc2C(F)(F)F)ccn1        IC50             16.3

--- query ---
Q) Specify measured IC50 for `CCNc1cc(-c2ccc(NC(=O)Nc3cccc(Cl)c3)cc2F)ccn1` .
A) 6.94
